Here the recorded Ki is given for each entry.
Target: GABA-A receptor; alpha-2/beta-3/gamma-2 (Homo sapiens, UniProt P18507+P28472+P47869)
Sequence (P18507 whole entry): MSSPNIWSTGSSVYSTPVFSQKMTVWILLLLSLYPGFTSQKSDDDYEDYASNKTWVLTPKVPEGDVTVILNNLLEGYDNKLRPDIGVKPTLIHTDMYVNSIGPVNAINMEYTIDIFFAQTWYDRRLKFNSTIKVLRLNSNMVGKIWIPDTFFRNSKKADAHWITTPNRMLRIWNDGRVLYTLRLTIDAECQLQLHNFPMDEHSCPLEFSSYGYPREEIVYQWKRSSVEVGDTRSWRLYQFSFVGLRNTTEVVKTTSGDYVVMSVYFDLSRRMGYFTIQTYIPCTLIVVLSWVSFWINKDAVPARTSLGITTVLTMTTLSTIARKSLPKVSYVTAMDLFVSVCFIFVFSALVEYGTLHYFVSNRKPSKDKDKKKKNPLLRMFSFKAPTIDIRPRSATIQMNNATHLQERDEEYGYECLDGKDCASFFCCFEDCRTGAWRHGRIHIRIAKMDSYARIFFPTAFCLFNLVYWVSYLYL
Sequence (P28472 whole entry): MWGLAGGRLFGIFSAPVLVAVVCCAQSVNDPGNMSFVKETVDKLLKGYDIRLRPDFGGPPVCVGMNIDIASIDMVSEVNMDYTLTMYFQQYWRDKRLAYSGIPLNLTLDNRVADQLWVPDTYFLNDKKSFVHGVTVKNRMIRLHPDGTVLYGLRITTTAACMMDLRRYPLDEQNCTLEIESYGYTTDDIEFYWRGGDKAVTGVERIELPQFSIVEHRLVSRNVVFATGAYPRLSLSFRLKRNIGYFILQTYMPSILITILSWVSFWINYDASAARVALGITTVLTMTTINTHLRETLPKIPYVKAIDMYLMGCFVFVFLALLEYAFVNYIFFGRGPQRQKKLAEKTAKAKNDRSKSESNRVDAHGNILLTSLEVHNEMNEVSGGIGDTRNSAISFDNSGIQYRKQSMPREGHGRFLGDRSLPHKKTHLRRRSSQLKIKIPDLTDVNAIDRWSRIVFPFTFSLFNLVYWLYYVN
Sequence (P47869 whole entry): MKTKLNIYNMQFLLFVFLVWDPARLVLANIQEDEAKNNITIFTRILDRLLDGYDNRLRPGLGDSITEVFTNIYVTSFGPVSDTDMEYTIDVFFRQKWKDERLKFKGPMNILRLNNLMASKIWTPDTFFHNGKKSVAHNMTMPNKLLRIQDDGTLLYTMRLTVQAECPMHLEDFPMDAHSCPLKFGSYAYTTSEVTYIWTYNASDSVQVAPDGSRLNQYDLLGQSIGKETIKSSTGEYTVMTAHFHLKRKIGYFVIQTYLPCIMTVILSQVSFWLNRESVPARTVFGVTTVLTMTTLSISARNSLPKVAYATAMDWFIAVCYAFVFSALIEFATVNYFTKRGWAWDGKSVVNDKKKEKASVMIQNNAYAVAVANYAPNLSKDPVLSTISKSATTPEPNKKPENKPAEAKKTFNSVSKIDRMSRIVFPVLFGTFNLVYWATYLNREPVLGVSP
Experiment: Binding affinity to human gamma-amino butyric-acid A receptor alpha-2-beta-3-gamma-2, using a [3H]-Ro- 15-1788 radioligand
reported_property: Ki (nM)

mol=CSc1sc(-c2ccc[nH]2)c2c1C(=O)CC(C)(C)C2 modifier=> endpoint_value=300
mol=CC1(C)CC(=O)c2c(NCCO)sc(-c3cc[nH]n3)c2C1 modifier=> endpoint_value=300
mol=CSc1sc(-c2nc(C)no2)c2c1C(=O)CC(C)(C)C2 modifier=> endpoint_value=300
mol=CC1(C)CC(=O)c2c(SCCCO)sc(-c3cc[nH]n3)c2C1 modifier== endpoint_value=46
mol=CSc1sc(-c2ncn(C)n2)c2c1C(=O)CC(C)(C)C2 modifier== endpoint_value=49
mol=CC1(C)CC(=O)c2c(SC(C)(C)C)sc(-c3cc[nH]n3)c2C1 modifier=> endpoint_value=300
mol=CC(C)Oc1sc(-c2cc[nH]n2)c2c1C(=O)CC(C)(C)C2 modifier== endpoint_value=182
mol=CSc1sc(-c2ccccc2)c2c1C(=O)CC(C)(C)C2 modifier=> endpoint_value=300
mol=CCc1sc(-c2cc[nH]n2)c2c1C(=O)CC(C)(C)C2 modifier== endpoint_value=162
mol=CC1(C)CC(=O)c2csc(-c3cc[nH]n3)c2C1 modifier=> endpoint_value=300
mol=CC1(C)CC(=O)c2c(SCCCO)sc(-c3nccs3)c2C1 modifier== endpoint_value=48

---

In this section, each of the compounds is paired with its reported Selectivity.
Target: Gamma-aminobutyric acid receptor subunit alpha-5 (Homo sapiens) (UniProt P31644)
Sequence (P31644 whole entry): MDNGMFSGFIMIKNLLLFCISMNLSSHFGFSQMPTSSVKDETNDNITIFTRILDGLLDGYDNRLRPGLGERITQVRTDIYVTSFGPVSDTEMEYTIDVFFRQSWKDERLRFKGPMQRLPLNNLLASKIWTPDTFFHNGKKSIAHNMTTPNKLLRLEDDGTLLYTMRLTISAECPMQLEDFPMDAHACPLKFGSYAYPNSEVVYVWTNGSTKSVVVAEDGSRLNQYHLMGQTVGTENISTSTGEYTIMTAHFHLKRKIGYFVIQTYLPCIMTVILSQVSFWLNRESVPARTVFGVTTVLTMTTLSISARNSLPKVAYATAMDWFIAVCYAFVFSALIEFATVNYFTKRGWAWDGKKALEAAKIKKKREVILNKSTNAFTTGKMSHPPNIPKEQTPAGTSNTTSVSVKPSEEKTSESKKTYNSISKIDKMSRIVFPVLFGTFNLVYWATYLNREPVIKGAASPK
Test: Binding selectivity for human gamma-aminobutyric-acid A receptor alpha-5 over GABA A alpha1,alpha2 and alpha-3 receptors
reported_property: Selectivity

mol=CC1(C)CC(=O)c2c(Sc3nccs3)sc(-c3nccs3)c2C1 target_or_test_system="Gamma-aminobutyric acid receptor subunit alpha-5 (Homo sapiens) (UniProt P31644)" reported_property=Selectivity modifier== endpoint_value=28
mol=CC(C)Sc1sc(-c2cc[nH]n2)c2c1C(=O)CC(C)(C)C2 target_or_test_system="Gamma-aminobutyric acid receptor subunit alpha-5 (Homo sapiens) (UniProt P31644)" reported_property=Selectivity modifier== endpoint_value=6
mol=CC1(C)CC(=O)c2c(SCCCO)sc(-c3nccs3)c2C1 target_or_test_system="Gamma-aminobutyric acid receptor subunit alpha-5 (Homo sapiens) (UniProt P31644)" reported_property=Selectivity modifier== endpoint_value=17
mol=CSc1sc(-c2nc(C)no2)c2c1C(=O)CC(C)(C)C2 target_or_test_system="Gamma-aminobutyric acid receptor subunit alpha-5 (Homo sapiens) (UniProt P31644)" reported_property=Selectivity modifier=> endpoint_value=8
mol=CC1(C)CC(=O)c2c(SCCCO)sc(-c3cc[nH]n3)c2C1 target_or_test_system="Gamma-aminobutyric acid receptor subunit alpha-5 (Homo sapiens) (UniProt P31644)" reported_property=Selectivity modifier== endpoint_value=13
mol=CSc1sc(-c2ccc[nH]2)c2c1C(=O)CC(C)(C)C2 target_or_test_system="Gamma-aminobutyric acid receptor subunit alpha-5 (Homo sapiens) (UniProt P31644)" reported_property=Selectivity modifier=> endpoint_value=4
mol=CSc1sc(-c2cncs2)c2c1C(=O)CC(C)(C)C2 target_or_test_system="Gamma-aminobutyric acid receptor subunit alpha-5 (Homo sapiens) (UniProt P31644)" reported_property=Selectivity modifier== endpoint_value=12
mol=CSc1sc(-c2cccnc2)c2c1C(=O)CC(C)(C)C2 target_or_test_system="Gamma-aminobutyric acid receptor subunit alpha-5 (Homo sapiens) (UniProt P31644)" reported_property=Selectivity modifier== endpoint_value=28
mol=CCCSc1sc(-c2cc[nH]n2)c2c1C(=O)CC(C)(C)C2 target_or_test_system="Gamma-aminobutyric acid receptor subunit alpha-5 (Homo sapiens) (UniProt P31644)" reported_property=Selectivity modifier== endpoint_value=9
mol=CSc1sc(-c2nccs2)c2c1C(=O)CC(C)(C)C2 target_or_test_system="Gamma-aminobutyric acid receptor subunit alpha-5 (Homo sapiens) (UniProt P31644)" reported_property=Selectivity modifier== endpoint_value=28
mol=CC(C)Nc1sc(-c2cc[nH]n2)c2c1C(=O)CC(C)(C)C2 target_or_test_system="Gamma-aminobutyric acid receptor subunit alpha-5 (Homo sapiens) (UniProt P31644)" reported_property=Selectivity modifier== endpoint_value=22
mol=CC1(C)CC(=O)c2c(Sc3nccs3)sc(-c3cc[nH]n3)c2C1 target_or_test_system="Gamma-aminobutyric acid receptor subunit alpha-5 (Homo sapiens) (UniProt P31644)" reported_property=Selectivity modifier== endpoint_value=34
mol=CCc1c(C(=O)OC)ncc2[nH]c3cc(OC)c(OC)cc3c12 target_or_test_system="Gamma-aminobutyric acid receptor subunit alpha-5 (Homo sapiens) (UniProt P31644)" reported_property=Selectivity modifier== endpoint_value=6
mol=CNc1sc(-c2cc[nH]n2)c2c1C(=O)CC(C)(C)C2 target_or_test_system="Gamma-aminobutyric acid receptor subunit alpha-5 (Homo sapiens) (UniProt P31644)" reported_property=Selectivity modifier=> endpoint_value=2
mol=CSc1sc(-c2ccncc2)c2c1C(=O)CC(C)(C)C2 target_or_test_system="Gamma-aminobutyric acid receptor subunit alpha-5 (Homo sapiens) (UniProt P31644)" reported_property=Selectivity modifier== endpoint_value=19
mol=CC1(C)CC(=O)c2c(Sc3cccs3)sc(-c3cc[nH]n3)c2C1 target_or_test_system="Gamma-aminobutyric acid receptor subunit alpha-5 (Homo sapiens) (UniProt P31644)" reported_property=Selectivity modifier== endpoint_value=8
mol=CC(C)Oc1sc(-c2cc[nH]n2)c2c1C(=O)CC(C)(C)C2 target_or_test_system="Gamma-aminobutyric acid receptor subunit alpha-5 (Homo sapiens) (UniProt P31644)" reported_property=Selectivity modifier== endpoint_value=18
mol=COc1sc(-c2cc[nH]n2)c2c1C(=O)CC(C)(C)C2 target_or_test_system="Gamma-aminobutyric acid receptor subunit alpha-5 (Homo sapiens) (UniProt P31644)" reported_property=Selectivity modifier=> endpoint_value=5
mol=CC1(C)CC(=O)c2c(SC(C)(C)C)sc(-c3cc[nH]n3)c2C1 target_or_test_system="Gamma-aminobutyric acid receptor subunit alpha-5 (Homo sapiens) (UniProt P31644)" reported_property=Selectivity modifier=> endpoint_value=2
mol=CSc1sc(-c2cc[nH]n2)c2c1C(=O)CC(C)(C)C2 target_or_test_system="Gamma-aminobutyric acid receptor subunit alpha-5 (Homo sapiens) (UniProt P31644)" reported_property=Selectivity modifier== endpoint_value=13
mol=CSc1sc(-c2ncn(C)n2)c2c1C(=O)CC(C)(C)C2 target_or_test_system="Gamma-aminobutyric acid receptor subunit alpha-5 (Homo sapiens) (UniProt P31644)" reported_property=Selectivity modifier== endpoint_value=14
mol=CCc1sc(-c2cc[nH]n2)c2c1C(=O)CC(C)(C)C2 target_or_test_system="Gamma-aminobutyric acid receptor subunit alpha-5 (Homo sapiens) (UniProt P31644)" reported_property=Selectivity modifier== endpoint_value=22
mol=CCSc1sc(-c2cc[nH]n2)c2c1C(=O)CC(C)(C)C2 target_or_test_system="Gamma-aminobutyric acid receptor subunit alpha-5 (Homo sapiens) (UniProt P31644)" reported_property=Selectivity modifier== endpoint_value=10
mol=CSc1sc(-c2ccccn2)c2c1C(=O)CC(C)(C)C2 target_or_test_system="Gamma-aminobutyric acid receptor subunit alpha-5 (Homo sapiens) (UniProt P31644)" reported_property=Selectivity modifier== endpoint_value=26
